System: RIVA
Assay: growth inhibition by drug plus 177Lu-lilotomab satetraxetan (1 - RLU/untreated control) (fraction); higher = stronger inhibition
Settings: 100 nM; time (day): 6; 177Lu-lilotomab satetraxetan 0.5 ug/ml
EXPERIMENTAL_READOUT: growth inhibition by drug plus 177Lu-lilotomab satetraxetan
Answers are plain numbers.

| COMPOUND | RECORDED_NUMBER |
| --- | --- |
| Cc1csc(-c2nnc(Nc3ccc(Oc4ncccc4-c4ccnc(N)n4)cc3)c3ccccc23)c1 | 0.676 |

Items follow; give growth inhibition by drug plus 177Lu-lilotomab satetraxetan for each.
1. Oc1nc(-c2ccc(C(F)(F)F)cc2)nc2c1CSCC2
2. N#Cc1c(O)c2c(-c3ccc(-c4ccccc4O)cc3)csc2[nH]c1=O
3. COc1c(C)c2c(c(O)c1C/C=C(\C)CCC(=O)OCCN1CCOCC1)C(=O)OC2 [Mycophenolate mofetil (CellCept)]

[0.496, 0.49, 0.539]

====

Tested on: U-2932
Assay: growth inhibition by drug alone (1 - RLU/untreated control) (fraction); higher = stronger inhibition
Settings: 1000 nM; time (day): 6; 177Lu-lilotomab satetraxetan 0 ug/ml
Kindly supply the reported growth inhibition by drug alone values for the records listed here.

// worked examples, growth inhibition by drug alone included
| COMPOUND | TESTED_SYSTEM | growth inhibition by drug alone |
| --- | --- | --- |
| CN1CCN(c2nc(C3=C(c4c[nH]c5ccccc45)C(=O)NC3=O)c3ccccc3n2)CC1 | U-2932 | 0.756 |
| O=C(/C=C/C#Cc1cccc(NS(=O)(=O)c2ccccc2)c1)NO | U-2932 | 0.702 |
| C[C@]1(O)C[C@@H](c2nc(-c3ccc4ccc(-c5ccccc5)nc4c3)c3c(N)nccn32)C1 | U-2932 | 0.0723 |

Consider the following items and state reported growth inhibition by drug alone for each.
1. CN[C@@H](C)C(=O)N[C@H]1CN(C(=O)CC(C)C)CC[C@H]2CC[C@@H](C(=O)NC(c3ccccc3)c3ccccc3)N2C1=O
2. CC(C)(C)c1[nH]cnc1/C=c1\[nH]c(=O)/c(=C/c2ccccc2)[nH]c1=O
3. Cc1ccc(NC(=O)c2ccc(CN3CCN(C)CC3)cc2)cc1Nc1nccc(-c2cccnc2)n1
4. CC(=O)O[C@]1(C(C)=O)CC[C@H]2[C@@H]3C[C@H](C)C4=CC(=O)CC[C@]4(C)[C@H]3CC[C@@]21C [Medroxyprogesterone acetate]

[-0.0575, 0.98, -0.0612, 0.056]

====

System: RIVA
Experiment: growth inhibition by drug plus 177Lu-lilotomab satetraxetan (1 - RLU/untreated control) (fraction); higher = stronger inhibition
Conditions: 100 nM; time (day): 6; 177Lu-lilotomab satetraxetan 0.5 ug/ml
EXPERIMENTAL_READOUT: growth inhibition by drug plus 177Lu-lilotomab satetraxetan
Give bare numbers.

Use the examples below as a reference point.
| COMPOUND | RECORDED_NUMBER |
| --- | --- |
| Cc1ccc(NC(=O)c2cccc(C(C)(C)C#N)c2)cc1Nc1ccc2ncn(C)c(=O)c2c1 | 0.563 |
| CCCCCOC(=O)Nc1nc(=O)n([C@@H]2O[C@H](C)[C@@H](O)[C@H]2O)cc1F [Capecitabine (Xeloda)] | 0.483 |
| CC[C@]1(O)C[C@H]2CN(CCc3c([nH]c4ccccc34)[C@@](C(=O)OC)(c3cc4c(cc3OC)N(C=O)[C@H]3[C@@](O)(C(=O)OC)[C@H](OC(C)=O)[C@]5(CC)C=CCN6CC[C@]43[C@@H]65)C2)C1 [Vincristine] | 0.979 |

Working through the 2 compounds below one at a time, give growth inhibition by drug plus 177Lu-lilotomab satetraxetan for each.
1. C[C@]1(O)C[C@@H](c2nc(-c3ccc4ccc(-c5ccccc5)nc4c3)c3c(N)nccn32)C1 [Linsitinib (OSI-906)]
2. CCC(C)n1ncn(-c2ccc(N3CCN(c4ccc(OCC5COC(Cn6cncn6)(c6ccc(Cl)cc6Cl)O5)cc4)CC3)cc2)c1=O (stereo not drawn) [Itraconazole (Sporanox)]

1: 0.42; 2: 0.559

Field: growth inhibition by drug plus 177Lu-lilotomab satetraxetan. Fill in for each record below.
1. CCCC(=O)[O-].[Na+] [Sodium butyrate]
2. CO[C@H]1C[C@@H]2CC[C@@H](C)[C@@](O)(O2)C(=O)C(=O)N2CCCC[C@H]2C(=O)O[C@H]([C@H](C)C[C@@H]2CC[C@@H](OC(=O)C(C)(CO)CO)[C@H](OC)C2)CC(=O)[C@H](C)/C=C(\C)[C@@H](O)[C@@H](OC)C(=O)[C@H](C)C[C@H](C)/C=C/C=C/C=C/1C [Temsirolimus (Torisel)]
3. CCc1cncnc1N1CCN(Cc2nc3ccc(C(F)(F)F)cc3[nH]2)CC1

1: 0.493; 2: 0.887; 3: 0.514

Report growth inhibition by drug plus 177Lu-lilotomab satetraxetan for every entry below.
1. CCC(C)(C)C(=O)O[C@H]1C[C@@H](C)C=C2C=C[C@H](C)[C@H](CC[C@@H]3C[C@@H](O)CC(=O)O3)[C@H]21 [Simvastatin (Zocor)]
2. COc1ccc(CCN2CCN(CCCc3ccccc3)CC2)cc1OC
3. C[C@]12CCC(=O)C=C1CC[C@@H]1[C@@H]2[C@@H](O)C[C@@]2(C)[C@H]1CC[C@]2(O)C(=O)CO [Hydrocortisone (Cortisol)]
4. Cc1ccc(-n2nc(C(C)(C)C)cc2NC(=O)Nc2ccc(OCCN3CCOCC3)c3ccccc23)cc1 [BIRB 796 (Doramapimod)]
5. COc1cc2/c(=N/c3ccc(Br)cc3F)nc[nH]c2cc1OCC1CCN(C)CC1 [Vandetanib (Zactima)]

0.48
0.162
0.347
0.528
0.355

====

Test system: RIVA
Experiment: growth inhibition by drug alone (1 - RLU/untreated control) (fraction); higher = stronger inhibition
Conditions: 10 nM; time (day): 6; 177Lu-lilotomab satetraxetan 0 ug/ml
EXPERIMENTAL_READOUT: growth inhibition by drug alone

These solved cases illustrate the format of a correct answer.
| MOLECULE | EXPERIMENTAL_READOUT | RESULT |
| --- | --- | --- |
| Cc1csc(-c2nnc(Nc3ccc(Oc4ncccc4-c4ccnc(N)n4)cc3)c3ccccc23)c1 | growth inhibition by drug alone | 0.206 |
| CNC(=O)c1cc(Oc2ccc(NC(=O)Nc3cc(C(C)(C)C)nn3-c3ccc4ncccc4c3)c(F)c2)ccn1 [DCC-2036 (Rebastinib)] | growth inhibition by drug alone | -0.395 |
| COc1cc2nccc(Oc3ccc(NC(=O)NC4CC4)c(Cl)c3)c2cc1C(N)=O [E7080 (Lenvatinib)] | growth inhibition by drug alone | -0.325 |

Let us move to another entry and its growth inhibition by drug alone.
For this molecule ( Nc1nc(F)nc2c1ncn2[C@@H]1O[C@H](CO)[C@@H](O)[C@@H]1O [Fludarabine (Fludara)] ), measured growth inhibition by drug alone is -0.266

====

Test system: RIVA
Test: growth inhibition by drug plus 177Lu-lilotomab satetraxetan (1 - RLU/untreated control) (fraction); higher = stronger inhibition
Conditions: 10 nM; time (day): 4; 177Lu-lilotomab satetraxetan 0.5 ug/ml
EXPERIMENTAL_READOUT: growth inhibition by drug plus 177Lu-lilotomab satetraxetan
Numbers only.

| COMPOUND | TESTED_SYSTEM | RECORDED_NUMBER |
| --- | --- | --- |
| C[C@@H](N)[C@H]1CC[C@H](C(=O)Nc2ccncc2)CC1 | RIVA | 0.588 |
| CNC(=O)c1cc(Oc2ccc(NC(=O)Nc3ccc(Cl)c(C(F)(F)F)c3)cc2)ccn1 [Sorafenib (Nexavar)] | RIVA | 0.487 |
| CC(C)(C)c1cc(NC(=O)Nc2ccc(-c3cn4c(n3)sc3cc(OCCN5CCOCC5)ccc34)cc2)no1 [Quizartinib (AC220)] | RIVA | 0.533 |
| COc1ccc2c3n(c(=NC(=O)c4cccnc4)nc2c1OC)CCN3 | RIVA | 0.534 |
| COc1c(C)c2c(c(O)c1C/C=C(\C)CCC(=O)O)C(=O)OC2 [Mycophenolic (Mycophenolate)] | RIVA | 0.601 |
| CC(C=CC(=O)NO)=CC(C)C(=O)c1ccc(N(C)C)cc1 (configuration not stated) [Trichostatin A (TSA)] | RIVA | 0.537 |
| O=C(c1cc(Cc2n[nH]c(=O)c3ccccc23)ccc1F)N1CCN(C(=O)C2CC2)CC1 [Olaparib (AZD2281)] | RIVA | 0.593 |
| O=C(O)c1ccc(-c2c[nH]c3ncc(-c4ccccc4)cc23)cc1C1CCCC1 | RIVA | 0.539 |

Could I get growth inhibition by drug plus 177Lu-lilotomab satetraxetan for every one of these entries?
1. CCC(=O)N1CCN(c2ccc(-n3c(=O)ccc4cnc5ccc(-c6cnc7ccccc7c6)cc5c43)cc2C(F)(F)F)CC1 [Torin 1]
2. CCCCCOC(=O)Nc1nc(=O)n([C@@H]2O[C@H](C)[C@@H](O)[C@H]2O)cc1F [Capecitabine (Xeloda)]

1. 0.599
2. 0.533

Source listed as the supplement of paper PMC6897291.
